# ASSAY TARGET: T1, Human CD3εδ Fc heterodimer (Hu CD3ε Fc + CD3δ Fc-HIS) (human, UniProt P07766 22-126; P04234 22-100)
# T1 construct: range 22-126;range 22-100; Made in HEK 293 cells with a heterologous signal peptide; also called Hu CD3εδ-Fc; CD3εδ Fc-HIS heterodimer; not shown: Fc; Fc followed by HIS tag
# T1 sequence (P07766 22-126, stated change not applied, form in doubt, chain 1 of 2): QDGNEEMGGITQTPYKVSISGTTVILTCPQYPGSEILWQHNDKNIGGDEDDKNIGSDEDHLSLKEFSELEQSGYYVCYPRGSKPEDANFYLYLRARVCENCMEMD
# T1 sequence (P04234 22-100, stated change not applied, form in doubt, chain 2 of 2): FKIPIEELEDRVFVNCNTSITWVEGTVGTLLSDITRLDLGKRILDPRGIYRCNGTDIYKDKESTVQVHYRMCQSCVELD
# TEST DETAILS: BLI (Octet), CD3εδ Fc on AHC sensor, 100 nM Fab
OBSERVABLE: pKd
pKd here: minus log base 10 of the concentration, concentration in moles per litre.

Looking for the measured pKd of Antibody No. V012 (ADI-70329) Fab (Fab, V domains shown, Fab by papain digestion of the IgG1) VH: QVQLVQSGAEVKKPGASVKVSCKASGFNDKDYYMHWVRQAPGQRLEWIGWIDLENAETVYDAKFQDRVTITRDTSASTAYMELSSLRSEDTAVYYCARDAYGRYFYDVWGQGTLVTVSS VL: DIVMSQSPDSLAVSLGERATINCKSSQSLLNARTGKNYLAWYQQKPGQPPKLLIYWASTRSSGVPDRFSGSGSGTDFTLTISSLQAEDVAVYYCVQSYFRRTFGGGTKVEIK , can you help?
8.78
